The measurements presented in this section are drawn from ChEMBL document CHEMBL4020734.

Target: hERG (KCNH2) (Homo sapiens)
Sequence (Q12809 whole entry): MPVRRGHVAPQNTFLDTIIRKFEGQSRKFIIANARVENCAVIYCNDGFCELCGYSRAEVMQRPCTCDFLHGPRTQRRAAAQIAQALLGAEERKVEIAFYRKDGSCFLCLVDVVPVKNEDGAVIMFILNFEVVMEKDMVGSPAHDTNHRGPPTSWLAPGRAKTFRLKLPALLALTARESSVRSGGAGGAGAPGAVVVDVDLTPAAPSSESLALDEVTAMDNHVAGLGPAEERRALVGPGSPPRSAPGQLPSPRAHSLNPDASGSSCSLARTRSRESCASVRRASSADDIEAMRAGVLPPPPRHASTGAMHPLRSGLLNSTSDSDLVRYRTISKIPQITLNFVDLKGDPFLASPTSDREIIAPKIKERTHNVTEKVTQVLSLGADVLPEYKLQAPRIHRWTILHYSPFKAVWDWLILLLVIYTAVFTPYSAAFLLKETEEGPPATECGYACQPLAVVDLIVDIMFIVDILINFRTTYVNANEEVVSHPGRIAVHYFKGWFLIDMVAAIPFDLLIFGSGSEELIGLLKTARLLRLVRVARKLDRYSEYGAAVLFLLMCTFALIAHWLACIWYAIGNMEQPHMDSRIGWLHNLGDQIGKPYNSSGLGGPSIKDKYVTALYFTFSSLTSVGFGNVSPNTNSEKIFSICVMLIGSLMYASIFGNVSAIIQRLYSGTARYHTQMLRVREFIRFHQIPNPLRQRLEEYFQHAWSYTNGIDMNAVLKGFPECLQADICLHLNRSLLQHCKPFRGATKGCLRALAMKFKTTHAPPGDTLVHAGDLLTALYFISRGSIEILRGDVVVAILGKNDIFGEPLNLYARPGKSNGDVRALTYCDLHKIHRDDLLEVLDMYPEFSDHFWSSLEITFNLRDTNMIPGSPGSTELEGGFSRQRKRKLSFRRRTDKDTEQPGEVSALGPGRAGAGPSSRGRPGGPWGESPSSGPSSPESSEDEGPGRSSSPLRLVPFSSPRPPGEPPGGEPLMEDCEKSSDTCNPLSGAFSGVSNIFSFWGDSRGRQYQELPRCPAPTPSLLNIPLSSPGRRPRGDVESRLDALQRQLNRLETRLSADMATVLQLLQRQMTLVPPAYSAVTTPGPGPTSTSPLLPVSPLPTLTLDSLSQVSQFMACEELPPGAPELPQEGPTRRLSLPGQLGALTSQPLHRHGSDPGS
Assay: Inhibition of human ERG expressed in HEK cells at 10 uM at -75 mV holding potential by Whole-cell voltage clamp assay relative to control
Format: cell-based
Settings: HEK cells expressing human ERG

Chemical Smiles	inhibition at 10 µM
CNCc1cc(-c2cccnc2F)n(S(=O)(=O)c2ccc(OC)nc2)c1	33.1%
CNCc1cc(-c2cccnc2Cl)n(S(=O)(=O)c2cccnc2)c1	10.6%
CNCc1cc(-c2ccccc2)n(S(=O)(=O)c2ccc(OC)cc2)c1	89.1%
CNCc1cc(-c2cccnc2C#N)n(S(=O)(=O)c2ccccc2)c1	32.9%
CNCc1cc(-c2ccccc2)n(S(=O)(=O)c2ccccc2)c1	87.5%
CNCc1cc(-c2cccnc2F)n(S(=O)(=O)c2cccs2)c1	63%
CNCc1cn(S(=O)(=O)c2cccnc2)c(-c2cccnc2F)c1Cl	41.3%
CNCc1cc(-c2ccccn2)n(S(=O)(=O)c2ccccc2)c1	48%
CNCc1cc(-c2cccnc2F)n(S(=O)(=O)c2ccco2)c1	49.1%
CNCc1cc(-c2cccnc2F)n(S(=O)(=O)c2cccc(C#N)c2)c1	46.7%
CNCc1cc(-c2cccnc2)n(S(=O)(=O)c2ccccc2)c1	43.3%
CNCc1cn(S(=O)(=O)c2cccnc2)c(-c2cccnc2F)c1F	39.8%
CNCc1cc(-c2cccnc2F)n(S(=O)(=O)c2ccccc2)c1	57%
CNCc1cc(-c2ccncc2F)n(S(=O)(=O)c2cccnc2)c1	18.8%
CNCc1cc(-c2cccnc2F)n(S(=O)(=O)c2cccnc2)c1	4.4%
CNCc1cc(-c2cnccc2C)n(S(=O)(=O)c2cccnc2)c1	8.3%
CNCc1cn(S(=O)(=O)c2cccnc2)c(-c2cccnc2F)c1C	30.3%
CNCc1cc(-c2cncnc2)n(S(=O)(=O)c2ccccc2)c1	24.2%
CNCc1cc(-c2cccnc2F)n(S(=O)(=O)c2cccc(OC)c2)c1	72.8%
CNCc1cc(-c2cccnc2F)n(S(=O)(=O)c2ccoc2)c1	59.3%
CNCc1cc(-c2cccnc2F)n(S(=O)(=O)c2cccc(F)c2)c1	56.2%
CNCc1cc(-c2cccnc2C#N)n(S(=O)(=O)c2cccnc2)c1	1.9%
CNCc1cc(-c2cccnc2Cl)n(S(=O)(=O)c2ccccc2)c1	40.9%
CNCc1cc(-c2cccnc2F)n(S(=O)(=O)c2ccsc2)c1	60%
